- System: MDA-MB-231
- procedure.text: Antiproliferative activity against human MDA-MB-231 cells
- Assay type: functional, cell-based
- test.context: Homo sapiens, MDA-MB-231
pIC50: −log10 of the molar value.
Reported pIC50 values follow for various compounds
property: pIC50

>>> val("C[C@H]1[C@H](OCCNC(=O)c2ccc(COc3ccc(/C=C/S(=O)(=O)Nc4ccccc4)cc3)cc2)O[C@@H]2O[C@@]3(C)CC[C@H]4[C@H](C)CC[C@@H]1[C@@]24OO3")
7.05
>>> val("C[C@H]1[C@H](OCCOc2cccc(/C=C/S(=O)(=O)Nc3ccccc3Cl)c2)O[C@@H]2O[C@@]3(C)CC[C@H]4[C@H](C)CC[C@@H]1[C@@]24OO3")
7.30
>>> val("C[C@H]1[C@H](OCCNC(=O)c2ccc(COc3ccc(/C=C/S(=O)(=O)Nc4ccccc4Cl)cc3)cc2)O[C@@H]2O[C@@]3(C)CC[C@H]4[C@H](C)CC[C@@H]1[C@@]24OO3")
7.05
>>> val("C[C@@H]1CC[C@H]2[C@@H](C)C(=O)O[C@@H]3O[C@@]4(C)CC[C@@H]1[C@]32OO4")
4.41
>>> val("CC(=O)c1cccc(-n2cc(CO[C@H]3O[C@@H]4O[C@]5(C)OO[C@]46[C@@H](CC[C@@H](C)[C@@H]6C[C@H]5O)[C@H]3C)nn2)c1")
4.60

###

The compounds listed here are annotated with their pIC50.
- System: COLO 205
- procedure.text: Antiproliferative activity against human COLO 205 cells
- Assay type: functional, cell-based
pIC50: −log10 of the molar value.
property: pIC50

>>> val("CC(=O)c1ccccc1-n1cc(CO[C@H]2O[C@@H]3O[C@]4(C)OO[C@]35[C@@H](CC[C@@H](C)[C@@H]5C[C@H]4O)[C@H]2C)nn1")
4.60
>>> val("C[C@H]1[C@@H](OCc2cn(-c3ccccc3C(=O)/C=C/c3ccccc3C(F)(F)F)nn2)O[C@@H]2O[C@@]3(C)CC[C@H]4[C@H](C)CC[C@@H]1[C@@]24OO3")
5.39
>>> val("C[C@H]1[C@@H](OCCn2cc(COc3cccc(O)c3)nn2)O[C@@H]2O[C@@]3(C)CC[C@H]4[C@H](C)CC[C@@H]1[C@@]24OO3")
4.75
>>> val("C[C@@H]1CC[C@H]2[C@@H](C)C(=O)O[C@@H]3O[C@@]4(C)CC[C@@H]1[C@]32OO4")
4.41
>>> val("C[C@H]1[C@@H](O)O[C@@H]2O[C@@]3(C)CC[C@H]4[C@H](C)CC[C@@H]1[C@@]24OO3")
4.80
>>> val("C[C@H]1[C@@H](OCCn2cc(COc3ccc(C=O)c(O)c3)nn2)O[C@@H]2O[C@@]3(C)CC[C@H]4[C@H](C)CC[C@@H]1[C@@]24OO3")
4.75
>>> val("COc1cccc2c1C(=O)c1c(O)c3c(c(O)c1C2=O)C[C@@](O)(C(=O)CO)C[C@@H]3O[C@H]1C[C@H](N)[C@H](O)[C@H](C)O1")
5.84
>>> val("C[C@H]1[C@@H](OCc2cn(-c3ccc(C#N)cc3)nn2)O[C@@H]2O[C@]3(C)OO[C@]24[C@H]1CC[C@@H](C)[C@@H]4C[C@H]3O")
4.60
>>> val("CC(=O)c1cccc(-n2cc(CO[C@H]3O[C@@H]4O[C@]5(C)OO[C@]46[C@@H](CC[C@@H](C)[C@@H]6C[C@H]5O)[C@H]3C)nn2)c1")
4.60
>>> val("C[C@H]1[C@@H](OCc2cn(-c3ccc(O)cc3)nn2)O[C@@H]2O[C@@]3(C)CC[C@H]4[C@H](C)CC[C@@H]1[C@@]24OO3")
5.39

###

Recorded CL/F for the following compounds
- procedure.text: Blood clearance in rat at 100 mg/kg, po
- Type: ADME, organism-based
property: CL/F (L/h/kg)

>>> val("C[C@H]1[C@@H](OCCN(CCCNc2ccnc3cc(Cl)ccc23)CCO[C@H]2O[C@@H]3O[C@@]4(C)CC[C@H]5[C@H](C)CC[C@@H]([C@H]2C)[C@@]35OO4)O[C@@H]2O[C@@]3(C)CC[C@H]4[C@H](C)CC[C@@H]1[C@@]24OO3")
184
>>> val("C[C@H]1[C@@H](OCC[N+]2(CCO[C@H]3O[C@@H]4O[C@@]5(C)CC[C@H]6[C@H](C)CC[C@@H]([C@H]3C)[C@@]46OO5)CCN(CCNc3ccnc4cc(Cl)ccc34)CC2)O[C@@H]2O[C@@]3(C)CC[C@H]4[C@H](C)CC[C@@H]1[C@@]24OO3.[Br-]")
287

###

- Test system: MDA-MB-231
- procedure.text: Antiproliferative activity against human MDA-MB-231 cells assessed as reduction in cell viability
- Format: functional, cell-based
property: IC50 (nM)

>>> val("C[C@H]1[C@@H](CC(=O)O[C@@H]2C[C@@H](OC(=O)C[C@H]3O[C@@H]4O[C@@]5(C)CC[C@H]6[C@H](C)CC[C@@H]([C@H]3C)[C@@]46OO5)[C@H](C)O[C@H]2O[C@H](C)CCCCC2OCOO2)O[C@@H]2O[C@@]3(C)CC[C@H]4[C@H](C)CC[C@@H]1[C@@]24OO3 (stereo partly drawn)")
5500
>>> val("C[C@H]1[C@H](OCCCn2cc(COc3cccc4c(C(F)(F)F)cc(=O)oc34)nn2)O[C@@H]2O[C@@]3(C)CC[C@H]4[C@H](C)CC[C@@H]1[C@@]24OO3")
430
>>> val("C[C@H]1[C@H](OCCn2cc(COc3cccc4c(C(F)(F)F)cc(=O)oc34)nn2)O[C@@H]2O[C@@]3(C)CC[C@H]4[C@H](C)CC[C@@H]1[C@@]24OO3")
430

###

Here, each record is paired with measured GI50 data.
- Test system: P388/ADR
- procedure.text: Antiproliferative activity against mouse P388/ADR cells assessed as reduction in cell viability measured after 72 hrs
- Assay type: functional, cell-based
- test.context: time 72 hrs
property: GI50

>>> val("C[C@H]1[C@@H](Oc2ccc(C(=O)N3CCN(Cc4ccccc4)CC3)cc2)O[C@@H]2O[C@@]3(C)CC[C@H]4[C@H](C)CC[C@@H]1[C@@]24OO3")
"22.1 nM"
>>> val("COc1cccc2c1C(=O)c1c(O)c3c(c(O)c1C2=O)C[C@@](O)(C(=O)CO)C[C@@H]3O[C@H]1C[C@H](N)[C@H](O)[C@H](C)O1")
"3730 nM"
>>> val("C[C@H]1[C@H](OC(=O)CCC(=O)N2CCN(C)CC2)O[C@@H]2O[C@]3(C)CC[C@H]4[C@H](C)CC[C@@H]1[C@@]24OO3")
"231 nM"
>>> val("CCN1CCN(C(=O)CCC(=O)O[C@@H]2O[C@@H]3O[C@]4(C)CC[C@H]5[C@H](C)CC[C@@H]([C@H]2C)[C@@]35OO4)CC1")
"231 nM"
>>> val("CC(C)N1CCN(C(=O)CCC(=O)O[C@@H]2O[C@@H]3O[C@]4(C)CC[C@H]5[C@H](C)CC[C@@H]([C@H]2C)[C@@]35OO4)CC1")
"231 nM"
>>> val("C[C@H]1[C@@H](Oc2ccc(C(=O)N3CCN(C/C=C/c4ccccc4)CC3)cc2)O[C@@H]2O[C@@]3(C)CC[C@H]4[C@H](C)CC[C@@H]1[C@@]24OO3")
"22.1 nM"
>>> val("C[C@H]1[C@H](OC(=O)CCC(=O)N2CCN(c3ccccc3)CC2)O[C@@H]2O[C@]3(C)CC[C@H]4[C@H](C)CC[C@@H]1[C@@]24OO3")
"231 nM"
>>> val("C[C@H]1[C@@H](Oc2ccc(C(=O)N3CCN(c4ccccc4)CC3)cc2)O[C@@H]2O[C@@]3(C)CC[C@H]4[C@H](C)CC[C@@H]1[C@@]24OO3")
"22.1 nM"

###

- System: Ca9-22
- procedure.text: Cytotoxicity against human Ca9-22 cells
- Format: functional, cell-based
property: IC50 (µM)

>>> val("C[C@H]1[C@@H](CCC(=O)Nc2cnc3ccccc3c2)O[C@@H]2O[C@@]3(C)CC[C@H]4[C@H](C)CC[C@@H]1[C@@]24OO3")
49.7

###

- Test system: SGC-7901
- procedure.text: Antiproliferative activity against human SGC-7901 cells assessed as reduction in cell viability measured for 24 hrs
- Type: functional, cell-based
- test.context: SGC-7901, 24 h
pIC50: −log10 of the molar value.
property: pIC50

>>> val("COc1ccc(Sc2cccc(C(=O)O[C@@H]3O[C@@H]4O[C@@]5(C)CC[C@H]6[C@H](C)[C@H](O)C[C@@H]([C@H]3C)[C@@]46OO5)c2)cc1")
5.37
>>> val("COc1ccc(Sc2cccc(C(=O)O[C@@H]3O[C@@H]4O[C@@]5(C)CC[C@H]6[C@H](C)[C@H](OC(=O)c7cccc(Sc8ccc(OC)cc8)c7)C[C@@H]([C@H]3C)[C@@]46OO5)c2)cc1")
5.80
>>> val("O=c1[nH]cc(F)c(=O)[nH]1")
5.17
